The origin of these recorded values is paper PMC8196545.

Target: HIV-1 NL4-3 Env on infected cells (HIV-1 group M subtype B, NL4-3 (pNL4-3 …, strain))

binder	binding result
c9497 (antibody, V domains shown) VH: QVQLVQSGAEVKKPGSSVKVSCKASGGSFSDYGISWVRQAPGQGLEWMGGIIPGLETTKFAQGLQGRLTMTADESSTTAYMVLTRLRSQDTAVYYCATTGQQNDYYSSGTSYKLNYYFGMDVWGQGTTVTVSS VL: QSVLTQPPSSSGTPGQRVTITCSGGSSNIETNSVNWYQQLPGAAPKTVISATHQRPSGVPDRFSASKSGASASLAISGLQSEDEADYYCAVWDDSLHAWVFGGGTKVTVL	binds
c9603 (antibody, V domains shown) VH: EVHLLQSAAEVKKPGSTVKVSCKVSGYTFTDYFLHWIQQTPERGLLWMGFVDPDSGVTVYAENFQGRITMTADTSSDTVYLEISSLTSEDAAVYYCATGSHSYPDTDGNPVYVMAFQYWGQGTLVSVSS VL: DIVMTQSPDSLGVSLGETATVKCKSSQSILYSSDNKNYLAWYQQKPGQPPKLLIYWASTRESGVPDRFSGSGSETDFTLTINNVQAEDVAVYYCQQYSESPPTFGGGTKVDFK	binds
c26986 (antibody, V domains shown) VH: QVHLVQSGAEVKKPGSSVKVSCKASGGSFNTNFITWVRQAPGQGLEWMGRIMPMFGTRNLAQRFQGRVTLSADTSSNSVYMELSSLTFGDTAVYFCAREAPAGGLDIWGQGTLVTVSS VL: QIVLTQSPGTLSLSPGERATLSCRASQSLSSNYLAWYQQKPGQAPRLLIYGASSRATGIPDRFSGSGSGTDFTLTISRLEPEDFAVYYCQQYSTLFSFGPGTRVDIK	binds
